Target: T1, Mcl-1, Q07820
T1 chain: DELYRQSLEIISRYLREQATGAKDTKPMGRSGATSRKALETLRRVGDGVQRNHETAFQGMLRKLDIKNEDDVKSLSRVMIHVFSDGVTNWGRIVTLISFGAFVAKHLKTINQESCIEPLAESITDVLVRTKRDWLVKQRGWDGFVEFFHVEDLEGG
Assay: peptide SPOT array, c-Myc-tagged receptor at 1 uM or 100 nM, anti-c-Myc-Cy3
# label = bin(measured SPOT signal as a fraction of Bim BH3's signal on the same receptor and array), where bins are b0 = under 0.02, b1 = from 0.02 up to 0.04, b2 = 0.04 and over

Please review the following examples before continuing.
1. KYFLQNFSCFLEETADEWAEKMPKGP [EFCAB6]
b1
2. HTALENCASLLCIRLDELQEALTSHC [MYO3A]
b1
3. CALLGSTGERICLALDSAGGNLCFTV [LIPE]
b0
4. VDSIRPKCQELRHLLDQFSAEIARRR [MCF2L]
b2
5. KSRLVQQSKALKELADELQERCQRPA [TRIM58]
b2
6. ACGDSVLARMLRELGDSLRRPQLRLW [SLC19A1]
b2
7. GKPETCTGQDDADLGDRLRDWFQLLH [SPOCK2]
b0
8. FVQDASAASALKDVSYKIYDDENQKI [NXF2]
b0
9. ADAIRPRCVELRHLCDDFINGNKKKW [MCF2L2]
b2
10. APEEDFFSIHIRIVGDWTEGLFNACG [CYBB]
b2

Pending binder:
Enquiry: Class (by measured SPOT signal as a fraction of Bim BH3's signal on the same receptor and array) for CLKRCRSAQVLHLYGATYSADGEDRA [NLRP12]
Return: b2

From: paper PMC4072508
